Tested on: normal NK cells expanded with K562-aAPC
procedure-details: percent inhibition of viability; higher = more inhibition
condition-label: 72 h; IL-2 2.5 ng/mL; 10 nM
quantity-measured: percent inhibition of viability (%)
Give the number; % is assumed, so skip it.

CC[C@H](C)C(=O)O[C@H]1C[C@@H](C)C=C2C=C[C@H](C)[C@H](CC[C@@H]3C[C@@H](O)CC(=O)O3)[C@H]21 [Lovastatin] (max concentration tested 10000 nM)	-5.1

Look up and report percent inhibition of viability, with normal NK cells expanded with K562-aAPC as system, for CO[C@H]1C[C@@H]2CC[C@@H](C)[C@@](O)(O2)C(=O)C(=O)N2CCCC[C@H]2C(=O)O[C@H]([C@H](C)C[C@@H]2CC[C@@H](OCCO)[C@H](OC)C2)CC(=O)[C@H](C)/C=C(\C)[C@@H](O)[C@@H](OC)C(=O)[C@H](C)C[C@H](C)/C=C/C=C/C=C/1C [Everolimus] (max concentration tested 100 nM) 2.05

Provenance of the data: the supplement of paper PMC5908809
